# credit: PubChem BioAssay AID1963869

Tested on: KRAS patient-derived spheroids with HUVEC/MSC, viability;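 also: spheroids exposed to agents for 7 days; 100% = DMSO vehicle control viability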
Assay: Anticancer human tumor 323965-272-R-J2-PDC patient-derived pancreatic carcinoma cell line growth inhibition [KRAS2]
Conditions: second compound 0.316 µM; first compound 1 µM; stronger effect = lower value
endpoint: viability, T/C (%)
Express the result in % but write the number alone.

CCNC(=O)CC1N=C(c2ccc(Cl)cc2)c2cc(OC)ccc2-n2c(C)nnc21 (stereo not given) + CNCc1ccccc1-c1csc(C(C)Nc2nc(C)nc3cc(OC)c(OC)cc23)c1 ... 36.4

*Q* Determine from records and report viability, T/C for COc1cc2nccc(Oc3ccc(NC(=O)C4(C(=O)Nc5ccc(F)cc5)CC4)cc3)c2cc1OC + C=CC(=O)N1CCN(c2nc(OCC3CCCN3C)nc3c2CCN(c2cccc4cccc(C)c24)C3)CC1CC#N
*A* 68.8

*Q* Find the measured viability, T/C of Cn1nccc1Nc1nccc(-c2cc3c(s2)C(C)(C)N(CCN2CCOCC2)C3=O)n1 + CC1OCC2(CCN(c3cnc(Sc4ccnc(N)c4Cl)c(N)n3)CC2)C1N and report it.
*A* 33.1

*Q* Provide measured viability, T/C value, entry: Cn1nccc1Nc1nccc(-c2cc3c(s2)C(C)(C)N(CCN2CCOCC2)C3=O)n1 + C=CC(=O)N1CCN(c2nc(OCC3CCCN3C)nc3c2CCN(c2cccc4cccc(C)c24)C3)CC1CC#N
*A* 37.4

*Q* // fetch viability, T/C given entry COC(=O)c1ccc2c(C(=Nc3ccc(N(C)C(=O)CN4CCN(C)CC4)cc3)c3ccccc3)c(O)[nH]c2c1 + COc1cc2nc(C)nc(NC(C)c3cc(N)cc(C(F)(F)F)c3)c2cc1OC1CCOC1
*A* 78.8
